test system: Staphylococcus aureus; experiment: Antibacterial activity against Staphylococcus aureus ATCC 6538 after 24 hrs by NCCLS method; type: functional; settings: ATCC 6538, 24 h
recorded_metric: MBC (µg/mL)
Record the value in µg/mL, omitting the unit from your answer.

Example entries and their recorded answers appear below.
> print(dat)
                           smiles.structure  unit.annotation  assay.result
1  CC(=O)OC[C@H]1O[C@@H](Sc2nnc(-c3ccccc3)n2/N=C/c2cc(Cl)ccc2O)[C@H](OC(C)=O)[C@@H](OC(C)=O)[C@@H]1OC(C)=O            µg/mL           128
2  CC(=O)OC[C@H]1O[C@@H](Sc2nnc(-c3ccccc3)n2/N=C/c2ccccc2O)[C@H](OC(C)=O)[C@@H](OC(C)=O)[C@@H]1OC(C)=O            µg/mL           128
3  CC(=O)OC[C@H]1O[C@@H](Sc2nnc(-c3ccccc3O)n2/N=C/c2cc(Cl)ccc2O)[C@H](OC(C)=O)[C@@H](OC(C)=O)[C@@H]1OC(C)=O            µg/mL           128

Shift focus to the following entry.
Request: Return the recorded MBC value; entry: "CC(=O)OC[C@H]1O[C@@H](Sc2nnc(-c3ccccc3)n2/N=C/c2ccccc2Cl)[C@H](OC(C)=O)[C@@H](OC(C)=O)[C@@H]1OC(C)=O"
Response: 128

* * *

system: Escherichia coli; test: Antibacterial activity against Escherichia coli ATCC 8099 after 24 hrs by NCCLS method; assay type: functional; conditions: ATCC 8099, 24 h
Threshold check on MBC: strictly below 100 µg/mL is MET; on or above 100 µg/mL is NOT MET.

Record excerpt, results attached:
> print(dat)
                           smiles.structure  category.label
1  CC(=O)OC[C@H]1O[C@@H](Sc2nnc(-c3ccccc3)n2/N=C/c2ccccc2)[C@H](OC(C)=O)[C@@H](OC(C)=O)[C@@H]1OC(C)=O         NOT MET
2  CC(=O)OC[C@H]1O[C@@H](Sc2nnc(-c3ccccc3)n2/N=C/c2cc(Br)cc(Br)c2O)[C@H](OC(C)=O)[C@@H](OC(C)=O)[C@@H]1OC(C)=O             MET
3  CC(=O)OC[C@H]1O[C@@H](Sc2nnc(-c3ccccc3O)n2/N=C/c2ccccc2Cl)[C@H](OC(C)=O)[C@@H](OC(C)=O)[C@@H]1OC(C)=O         NOT MET

Request: MBC strictly < 100 µg/mL for this compound? "OC(Cn1cncn1)(Cn1cncn1)c1ccc(F)cc1F"
Response: NOT MET

Request: Below 100 µg/mL on MBC? Entry "CC(=O)OC[C@H]1O[C@@H](Sc2nnc(-c3ccccc3)n2/N=C/c2cc(Br)ccc2O)[C@H](OC(C)=O)[C@@H](OC(C)=O)[C@@H]1OC(C)=O"
Response: NOT MET

Request: Item "CC(=O)OC[C@H]1O[C@@H](Sc2nnc(-c3ccccc3O)n2/N=C/c2cc(Br)ccc2O)[C@H](OC(C)=O)[C@@H](OC(C)=O)[C@@H]1OC(C)=O" : MBC beneath 100 µg/mL, strictly?
Response: NOT MET

Request: Does the reported MBC of "CC(=O)OC[C@H]1O[C@@H](Sc2nnc(-c3ccccc3O)n2/N=C/c2cc(Br)cc(Br)c2O)[C@H](OC(C)=O)[C@@H](OC(C)=O)[C@@H]1OC(C)=O" stay below 100 µg/mL?
Response: MET

Request: Record "CC(=O)OC[C@H]1O[C@@H](Sc2nnc(-c3ccccc3)n2/N=C/c2cc(Cl)ccc2O)[C@H](OC(C)=O)[C@@H](OC(C)=O)[C@@H]1OC(C)=O" : is its MBC strictly below 100 µg/mL?
Response: NOT MET

Request: Please check: MBC for "CC(=O)OC[C@H]1O[C@@H](Sc2nnc(-c3ccccc3O)n2/N=C/c2ccccc2O)[C@H](OC(C)=O)[C@@H](OC(C)=O)[C@@H]1OC(C)=O" , strictly under 100 µg/mL or not?
Response: MET

Request: Dear colleague, could you confirm whether MBC of "Oc1cc(Cl)ccc1Oc1ccc(Cl)cc1Cl" falls below 100 µg/mL? Thanks.
Response: MET

Request: Check if MBC falls below 100 µg/mL for "CC(=O)OC[C@H]1O[C@@H](Sc2nnc(-c3ccccc3)n2/N=C/c2ccccc2Cl)[C@H](OC(C)=O)[C@@H](OC(C)=O)[C@@H]1OC(C)=O" .
Response: NOT MET

Request: Take the compound "CC(=O)OC[C@H]1O[C@@H](Sc2nnc(-c3ccccc3O)n2/N=C/c2cc(Cl)ccc2O)[C@H](OC(C)=O)[C@@H](OC(C)=O)[C@@H]1OC(C)=O" and say whether its MBC is less than 100 µg/mL.
Response: NOT MET

Request: Quick check: does "CC(=O)OC[C@H]1O[C@@H](Sc2nnc(-c3ccccc3O)n2/N=C/c2ccccc2)[C@H](OC(C)=O)[C@@H](OC(C)=O)[C@@H]1OC(C)=O" have MBC under 100 µg/mL?
Response: NOT MET
